Reference source for all entries: patent US6552080B1

Tested on: Puccinia recondita
Test Details: Fungicidal activity against Wheat Leaf Rust (WLR) disease
Format: in vivo
Assay Conditions: Wheat Leaf Rust; concentration 2 ppm
# maps each entry to its WLR (Fungicidal Activities, C.V.)
Kindly write the number and append the unit.

Record excerpt, results attached:
Smiles String: COC=C(C(=O)OC)c1ccccc1CON=Cc1cccc(OC(F)=C(c2cccc(C)c2)C(F)(F)F)c1
Target Under Test: Puccinia recondita
WLR (Fungicidal Activities, C.V.): 66%
//
Smiles String: COC=C(C(=O)OC)c1ccccc1CON=C(C)c1cccc(OC(F)=Cc2cc(C)cc(C)c2)c1
Target Under Test: Puccinia recondita
WLR (Fungicidal Activities, C.V.): 96%
//
Smiles String: CNC(=O)C(=NOC)c1ccccc1CON=Cc1cccc(OC(F)=C(c2cccc(C)c2)C(F)(F)F)c1
Target Under Test: Puccinia recondita
WLR (Fungicidal Activities, C.V.): 0%
//
Smiles String: CO/N=C(/C(=O)OC)c1ccccc1CON=C(C)c1cccc(OC(F)=Cc2ccccc2)c1
Target Under Test: Puccinia recondita
WLR (Fungicidal Activities, C.V.): 99%
//
Smiles String: CNC(=O)C(=NOC)c1ccccc1CON=Cc1cccc(OC(F)=C(c2ccccc2)C(F)(F)F)c1
Target Under Test: Puccinia recondita
WLR (Fungicidal Activities, C.V.): 93%

query: // lookup WLR (Fungicidal Activities, C.V.) for CCOc1ccc(C=C(F)Oc2cccc(C(C)=NOCc3ccccc3C(=NOC)C(=O)OC)c2)cc1
result: 98%

query: Reported WLR (Fungicidal Activities, C.V.) for COC=C(C(=O)OC)c1ccccc1CON=Cc1cccc(OC(F)=C(c2ccc(F)cc2)C(F)(F)F)c1 : what is it?
result: 86%

====

Tested on: Phytophthora infestans
Type: in vivo
Assay Conditions: 50 ppm
Property: Fungicidal Activities TLB (C.V.); scope: individual molecules
Write down the numeric answer in % and omit the unit.

Here's what some known entries look like.
Smiles String: CON=C(C(=O)OC)c1ccccc1CON=C(c1cccc(OC(F)=C(c2ccccc2)C(F)(F)F)c1)C(F)(F)F
Reported Result: 0
--
Smiles String: CON=C(C(=O)OC)c1ccccc1CON=C(C)c1cccc(OC(F)=C(c2ccc(F)cc2)C(F)(F)F)c1
Reported Result: 50
--
Smiles String: CNC(=O)C(=NOC)c1ccccc1CON=C(C)c1cccc(OC(F)=C(c2ccccc2)C(F)(F)F)c1
Reported Result: 60

query: Item CCc1ccc(C(=C(F)Oc2cccc(C(C)=NOCc3ccccc3C(=NOC)C(=O)NC)c2)C(F)(F)F)cc1 with Phytophthora infestans - Fungicidal Activities TLB (C.V.)?
result: 50

query: What Fungicidal Activities TLB (C.V.) appears in the records for this molecule with Phytophthora infestans? CON=C(C(=O)OC)c1ccccc1CON=C(C)c1cccc(OC(F)=C(c2ccc(C)cc2)C(F)(F)F)c1
result: 0

query: Look up Fungicidal Activities TLB (C.V.) with Phytophthora infestans for this molecule: CNC(=O)C(=NOC)c1ccccc1CON=C(C)c1cccc(OC(F)=C(c2cc(C)cc(C)c2)C(F)(F)F)c1
result: 0

query: Hello, I am looking for reported Fungicidal Activities TLB (C.V.) with Phytophthora infestans for CON=C(C(=O)OC)c1ccccc1CON=C(C)c1cccc(OC(F)=C(c2cccc(C(F)(F)F)c2)C(F)(F)F)c1 . Could you help?
result: 40

query: Item CNC(=O)C(=NOC)c1ccccc1CON=C(C)c1cccc(OC(F)=C(c2ccc(F)cc2)C(F)(F)F)c1 with Phytophthora infestans - Fungicidal Activities TLB (C.V.)?
result: 60

query: API: value(readout=Fungicidal Activities TLB (C.V.), system=Phytophthora infestans) for record COC=C(C(=O)OC)c1ccccc1CON=C(C)c1cccc(OC(F)=C(c2ccc(Cl)cc2)C(F)(F)F)c1
result: 12

query: Give Phytophthora infestans Fungicidal Activities TLB (C.V.) for CNC(=O)C(=NOC)c1ccccc1CON=C(C)c1cccc(OC(F)=C(c2cccc(Cl)c2)C(F)(F)F)c1
result: 50

query: Checklist item: Fungicidal Activities TLB (C.V.) tested on Phytophthora infestans, entry CNC(=O)C(=NOC)c1ccccc1CON=C(C)c1cccc(OC(F)=C(c2ccc(C)cc2)C(F)(F)F)c1 , value?
result: 40

query: Requested read-out Fungicidal Activities TLB (C.V.), target or system Phytophthora infestans, entry CON=C(C(=O)OC)c1ccccc1CON=C(C)c1cccc(OC(F)=C(c2ccc3c(c2)OCO3)C(F)(F)F)c1
result: 0

query: Param readout= Fungicidal Activities TLB (C.V.); system= Phytophthora infestans; entry= CNC(=O)C(=NOC)c1ccccc1CON=C(C)c1cccc(OC(F)=C(c2ccc(C)c(C)c2)C(F)(F)F)c1 ; returns value.
result: 40

query: Request body: readout Fungicidal Activities TLB (C.V.), system Phytophthora infestans, query CON=C(C(=O)OC)c1ccccc1CON=C(C)c1cccc(OC(F)=C(c2ccc(Cl)cc2)C(F)(F)F)c1 . Return the value.
result: 50

====

Tested on: Botrytis cinerae
Test Details: Fungicidal activity against Cucumber Gray Mold Rot (CGM) disease
Assay type: in vivo
Assay Conditions: Cucumber Gray Mold Rot; concentration 50 ppm
Recorded CGM (Fungicidal Activities, C.V.) for the following molecules
Quick reminder: number only, in %, skip the unit.

Here's what some known entries look like.
Smiles String: CO/C=C(/C(=O)OC)c1ccccc1CON=Cc1cccc(OC(F)=Cc2ccccc2)c1
CGM (Fungicidal Activities, C.V.) (%): 69
//
Smiles String: CNC(=O)C(=COC)c1ccccc1CON=C(C)c1cccc(OC(F)=Cc2cc(C)cc(C)c2)c1
CGM (Fungicidal Activities, C.V.) (%): 8

query: Please look up its CGM (Fungicidal Activities, C.V.): CNC(=O)C(=COC)c1ccccc1CON=C(C)c1cccc(OC(F)=Cc2ccc(OC)cc2)c1
result: 8

query: Consider the molecule shown here: COC=C(C(=O)OC)c1ccccc1CON=C(C)c1cccc(OC(F)=Cc2ccc(C)cc2)c1 What is its recorded CGM (Fungicidal Activities, C.V.)?
result: 64

query: Record request: CGM (Fungicidal Activities, C.V.) value, item CNC(=O)C(=COC)c1ccccc1CON=C(C)c1cccc(OC(F)=Cc2ccc3c(c2)OCO3)c1
result: 33

query: Consider the molecule CON=C(C(=O)OC)c1ccccc1CON=Cc1cccc(OC(F)=Cc2ccc(Cl)cc2)c1 and give its measured CGM (Fungicidal Activities, C.V.).
result: 9

query: Using the record for CNC(=O)/C(=N/OC)c1ccccc1CON=C(C)c1cccc(OC(F)=Cc2ccccc2)c1 , report its CGM (Fungicidal Activities, C.V.).
result: 85

query: Which CGM (Fungicidal Activities, C.V.) is listed for COC=C(C(=O)OC)c1ccccc1CON=C(C)c1cccc(OC(F)=Cc2ccc(Cl)cc2)c1 ?
result: 51

query: Which measured CGM (Fungicidal Activities, C.V.) value corresponds to COC=C(C(=O)OC)c1ccccc1CON=C(C)c1cccc(OC(F)=C(c2ccc(F)cc2)C(F)(F)F)c1 ?
result: 36

query: Can you share its CGM (Fungicidal Activities, C.V.)? I mean this molecule: CON=C(C(=O)OC)c1ccccc1CON=Cc1cccc(OC(F)=Cc2ccc(C)cc2)c1
result: 9

query: Sample CNC(=O)C(=NOC)c1ccccc1CON=Cc1cccc(OC(F)=Cc2ccc(C)c(C)c2)c1 — what was its CGM (Fungicidal Activities, C.V.)?
result: 8

query: Name the recorded CGM (Fungicidal Activities, C.V.) for COC=C(C(=O)OC)c1ccccc1CON=Cc1cccc(OC(F)=C(c2ccc(C)cc2)C(F)(F)F)c1 .
result: 0

====

Tested on: Botrytis cinerae
Test Details: Fungicidal activity against Cucumber Gray Mold Rot (CGM) disease
Type: in vivo
Assay Conditions: Cucumber Gray Mold Rot; concentration 50 ppm
Outcome: rule met for CGM (Fungicidal Activities, C.V.) of at least 40%; rule not met for anything lower.

query: Given the entry CNC(=O)C(=NOC)c1ccccc1CON=C(C)c1cccc(OC(F)=Cc2cccc(C)c2)c1 [Compound 78] , answer whether its CGM (Fungicidal Activities, C.V.) meets or surpasses 40%.
result: rule met

query: Hi team, for COC=C(C(=O)OC)c1ccccc1CON=Cc1cccc(OC(F)=C(c2cccc(Cl)c2)C(F)(F)F)c1 [Compound 116] , is the recorded CGM (Fungicidal Activities, C.V.) at or above 40%?
result: rule not met

query: Is the recorded value of CGM (Fungicidal Activities, C.V.) equal to or greater than 40% for this compound? CON=C(C(=O)OC)c1ccccc1CON=C(C)c1cccc(OC(F)=Cc2cccc(OC)c2)c1 [Compound 71]
result: rule not met

query: Tell me whether CGM (Fungicidal Activities, C.V.) is at least 40% here: CCCCc1ccc(C=C(F)Oc2cccc(C(C)=NOCc3ccccc3C(=NOC)C(=O)OC)c2)cc1 [Compound 70]
result: rule met

query: I'd appreciate it if you could say whether CNC(=O)C(=NOC)c1ccccc1CON=Cc1cccc(OC(F)=Cc2ccc3c(c2)OCO3)c1 [Compound 39] has CGM (Fungicidal Activities, C.V.) at least equal to 40%.
result: rule not met

query: Say whether CON=C(C(=O)OC)c1ccccc1CON=C(C)c1cccc(OC(F)=Cc2cccc(Cl)c2)c1 [Compound 75] shows CGM (Fungicidal Activities, C.V.) of 40% or more.
result: rule not met

query: Is the recorded value of CGM (Fungicidal Activities, C.V.) equal to or greater than 40% for this compound? CCc1ccc(C=C(F)Oc2cccc(C(C)=NOCc3ccccc3C(=COC)C(=O)OC)c2)cc1 [Compound 45]
result: rule not met

query: Determine whether this compound has CGM (Fungicidal Activities, C.V.) no lower than 40%: CON=C(C(=O)OC)c1ccccc1CON=C(C)c1cccc(OC(F)=Cc2ccc(C)c(C)c2)c1 [Compound 67]
result: rule not met
